B1: Zinc finger MYM-type protein 6, residues 427 to 504; numbered along this chain, O95789 (parent)
chain: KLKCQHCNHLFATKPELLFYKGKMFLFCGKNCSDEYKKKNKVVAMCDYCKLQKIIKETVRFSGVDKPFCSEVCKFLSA

variants of: B1; assay: abundance fitness (aPCA) (normalised: wild type 0, dead -1); higher = more abundant; growth selection in yeast, the domain comes from the species named; details: Homo sapiens
Everything with abundance fitness lower than -0.3 is false (0); everything else, including exactly -0.3, is true (1).

// below: answered variants
> print(dat)
                                biosequence        cat
1  KLKCQHCNHLFATKPELLFYKGKMFLFRGKNCSDEYKKKNKVVAMCDYCKLQKIIKETVRFSGVDKPFCSEVCKFLSA [C28R]  false (0)
2  KLKCQHCNHLFATKPELLFYKGKMFLFCGKNCSDVYKKKNKVVAMCDYCKLQKIIKETVRFSGVDKPFCSEVCKFLSA [E35V]   true (1)
3  KLKCQHCNHLFATKPELLFYKGKMFLFCGKNCSDEYKKKLKVVAMCDYCKLQKIIKETVRFSGVDKPFCSEVCKFLSA [N40L]   true (1)
4  KLKCQHCNHLFATKPELLFYKGKMFLFCGKNCSDEYKKKNKVVAMCDYCKLQKIIKETVRFSGVDKPFCSESCKFLSA [V72S]   true (1)
5  KLKCQHCNHLFATKPELLFYKGKMFLFCGKNCSDEYKKKNKVVAMCDYCKLAKIIKETVRFSGVDKPFCSEVCKFLSA [Q52A]  false (0)
6  KLKCQHCNHLFATKPELLFYKGKIFLFCGKNCSDEYKKKNKVVAMCDYCKLQKIIKETVRFSGVDKPFCSEVCKFLSA [M24I]   true (1)
7  KLKCQHCNHLFATKPELLFYKGKMFLFCGKNCSDEYKKKNKVVAMCDYCKLQKIIKEYVRFSGVDKPFCSEVCKFLSA [T58Y]   true (1)
8  KLKCQHCNHLFATKPELLFYKGKMFLFCGKNCSDEYKTKNKVVAMCDYCKLQKIIKETVRFSGVDKPFCSEVCKFLSA [K38T]   true (1)
9  KLKCQHCNHLFATKPELLFYKPKMFLFCGKNCSDEYKKKNKVVAMCDYCKLQKIIKETVRFSGVDKPFCSEVCKFLSA [G22P]  false (0)

Tell me whether abundance fitness is at least -0.3 here: KLKCQHCNHLFATKPELLFYKGKMFLFCGKNCSDEYKKKNKVVAMCDYCKLQKIIKETVRFSGVDKPFCSNVCKFLSA [E71N]
true (1)

Just for reference, the Human Domainome abundance scans (Beltran et al. 2025) is where these values come from.
